# experimental system: T1, rhesus monkey CD22-ECD-His protein (rhesus monkey, UniProt H9G1X2 18-686)
# T1 construct: extracellular domain; also called monkey CD22 protein
# T1 sequence: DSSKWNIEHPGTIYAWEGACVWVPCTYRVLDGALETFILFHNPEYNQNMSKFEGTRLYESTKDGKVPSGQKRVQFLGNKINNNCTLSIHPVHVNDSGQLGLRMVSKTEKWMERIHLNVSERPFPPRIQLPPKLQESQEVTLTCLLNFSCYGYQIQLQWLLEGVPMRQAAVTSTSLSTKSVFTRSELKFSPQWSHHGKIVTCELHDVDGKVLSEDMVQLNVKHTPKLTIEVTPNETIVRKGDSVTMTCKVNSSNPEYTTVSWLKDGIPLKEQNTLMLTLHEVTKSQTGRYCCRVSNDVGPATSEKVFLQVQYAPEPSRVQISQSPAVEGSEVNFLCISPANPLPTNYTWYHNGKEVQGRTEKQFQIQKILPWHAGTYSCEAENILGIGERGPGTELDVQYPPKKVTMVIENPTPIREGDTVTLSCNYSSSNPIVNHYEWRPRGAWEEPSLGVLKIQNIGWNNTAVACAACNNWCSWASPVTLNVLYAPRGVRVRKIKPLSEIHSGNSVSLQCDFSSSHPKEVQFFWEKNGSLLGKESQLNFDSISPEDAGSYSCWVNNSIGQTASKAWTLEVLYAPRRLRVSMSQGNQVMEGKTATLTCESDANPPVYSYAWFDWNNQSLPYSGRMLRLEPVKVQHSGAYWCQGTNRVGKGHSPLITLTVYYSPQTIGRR
# method description: SPR (Biacore), antibody captured on Protein A chip, rhesus CD22 in solution
Returns one of Y or N; Y when koff is >= 0.0005 s⁻¹.

Would you say F1.105.11 (antibody, human IgG1, kappa, V domains shown, Chimeric IgG1 kappa) VH: EVQLQQSGPVLVKPGASVKMSCKASGYTFSDYFMNWVKQSHGKSLEWIGIINSYSGGTSYNQKFKGKATLTVDKSSSTAYMELNSLTSEDSAVYYCARWMDYWGQGTSVTVSS VL: DVQITQSPSYLAASPGETITINCRTSESISKHLAWYQEKPGKTNKLLIYSGSTLQSGIPSRFSGSGSGTDFTLTISSLEPEDFAMYYCQQHNEYPWTFGGGTKLEIKR shows koff at minimum 0.0005 s⁻¹?
N

Would you say F1.120.15 (antibody, human IgG1, kappa, V domains shown, Chimeric IgG1 kappa) VH: QVQLQQSGPELVKPGASVKISCKASGNAFSNSWMNWVKQRPGKGLEWIGRVYSEDGDTQYNGKFRDKATLTADRSTSTAYMQLSSLTSEDSAVYFCARWLIYYGTYGAMDYWGQGTSVTVSS VL: DIQMTQTTSSLSASLGDRVTISCRASQDINNYLNWYHQKPDGTVKLLIYFTSRPYSGVPSRFSGSGSGTDYSLTISNLEQEDIATYFCQQGNTLPWTFGGGTKLEIKR shows koff at minimum 0.0005 s⁻¹?
Y

Would you say F1.172.13 (antibody, human IgG1, kappa, V domains shown, Chimeric IgG1 kappa) VH: QVTLKESGPGILQSSQTLSLTCSFSGFSLSTSGMGVSWIRQPSGKGLEWLAHIYWDDDKRYNPSLKSRLTISKDTSRNQVFLKITSVDTADTATYYCARAPPPNWDEYYFDYWGQGTTLTVSS VL: DIQMTQSPASLSASVGETVTITCRASGNIHNSLAWYQQKQGKSPQLLVHNAKTLADGVPSRFSGSGSGTQYSLKINSLQPEDFGSYYCQHFWSTPPFGGGTKLEIKR shows koff at minimum 0.0005 s⁻¹?
Y

Would you say F2.151.13 (antibody, human IgG1, lambda, V domains shown, Chimeric IgG1 lambda) VH: QVHLQQPGTELMKPGASVKLSCKATGYTFRDYWLEWVKQRPGHGLEWIGEILPGSGNAYYNEKFKGKATFTADTSSNTAYMQLSSLTTEDSAIYYCARVYSNWYFDAWGKGTTVTVSS VL: QAVVTQESALTTSPGETVTLTCRSSTGAVTTSNYANWVQEKPDHLFTGLIGGTNNQAPGVPARFSGSLIGDKAALTISGAQTEDEAIYFCALWFSNHWVFGGGTKLTVLG shows koff at minimum 0.0005 s⁻¹?
Y

Would you say F2.205.9 (antibody, human IgG1, lambda, V domains shown, Chimeric IgG1 lambda) VH: QVTLKESGPGILQPSQTLSLTCSFSGFSLSTSGMGVGWIRQPSGKGLEWLAHIWWDDDEYYNPALKSRLTISKDTSKNQVFLKIANVDTADTATYYCARISIPYGYYDWFFDVWGTGTTVTVSA VL: QAVVTQESALTTSPGETVTLTCRSSTGAVTTRNYANWVQEKPDHLFTGLIGGTNNRAPGVPARFSGSLIGDKAALTITGAQTEDEAIYFCALWYSNHFIFGSGTKVTVLG shows koff at minimum 0.0005 s⁻¹?
Y

Would you say F1.224.1 (antibody, human IgG1, kappa, V domains shown, Chimeric IgG1 kappa) VH: EVLLHQSGPELVKPGASVKISCKASGYTFTDFNMDWVRQRHGQSLEWIGDVNPNNGGTIYNQKFKGKATLTVDKSSSTVYMDLRSLTSDDTAVYYCVRLGTSDYGEAWFISWGQGTVVTVSA VL: DIVLTQSPASLAVSLGQRATISCRASQSVSTPRYSFMHWYQQKPGQPPKLLIKYASNLESGFPARFTGSGSGTDFTLNIHPVEEEDTAAYYCQQSWAIPWTFGGGTKLEIKR shows koff at minimum 0.0005 s⁻¹?
N

Would you say F1.192.1 (antibody, human IgG1, kappa, V domains shown, Chimeric IgG1 kappa) VH: AVQLQQSGVELVRPGASVKLSCTGSDFNIKEDYIHWVKQRPEQGLEWIGWIDPENGDTEYASKFQGKATITADTSSNTAYLQLSSLTSEDTAVYYCATYGSLDYWGQGTTLTVSS VL: DIKMTQSPSSMYAFLGERVTITCKASQGINSFLTWFQQKPGKSPKTLIYRANRLVDGVPSRFSGSGSGQDYSLTISSLEYEDVGIYYCLQYDEFPRTFGGGTKLEIKR shows koff at minimum 0.0005 s⁻¹?
Y

Would you say F2.173.9 (antibody, human IgG1, lambda, V domains shown, Chimeric IgG1 lambda) VH: EVQLVESGGDLVKPGESLKLSCEASGFTFSNYAMSWVRQTPDRRLEWVATISSIGSFTYYSDSVKGRFTISRDNVKSTLHLQMNNLKSGDTAIYFCARLGVYFDSWGQGTTLTVSS VL: QLVLTQSSSASFSLGASAKLTCTLSSQHSTYTIEWYQQQPHKPPKFVMEIKKDGSHYTGDGIPDRFSGSSSGADRYLSISNIQPEDETIYICGVSDMIKDQFVYVFGGGTKVTVLG shows koff at minimum 0.0005 s⁻¹?
Y

Would you say F2.99.1 (antibody, human IgG1, lambda, V domains shown, Chimeric IgG1 lambda) VH: QVTLKESGPGILQPSQTLSLTCSFSGFSLSTFPMGVGWIRQPSGKGLEWLAHIWWDDDEYYNPVLKSRLTISKDTSKKQVYLRIANVDTVDTATYYCTRANWDRWYFDVWGTGTTVTVSS VL: QLVLTQSSSASFSLGASAKLTCTLSRQHSAYTIEWYQQQPLKPPKYVMEVKKDGSHSTGDGIPDRFSGSSSGADRYLSISNIQPEDEAIYICGVGDTIKEHFVFGGGTKVTVLG shows koff at minimum 0.0005 s⁻¹?
Y

Would you say F1.267.9 (antibody, human IgG1, kappa, V domains shown, Chimeric IgG1 kappa) VH: EVQLQQSGPVLVKPGASVKMSCKASGYTFTDFYMNWAKQSHGKSLEWVGVINPYNGGINYNQKFKGKATLTVDKSSSTAYMEFNSLTSEDSAVYYCARRMEYHAMDYWGQGTSVTVSS VL: DIVLTQSPASLAVSLGQRATISCRASESVDNYGFDFIHWYQQKPGQPPKLLIYRASNLESGIPARFSGSGSRPDFTLTINPVETDDVATYYCQQSIKDPWTFGGGTKLEIKR shows koff at minimum 0.0005 s⁻¹?
N
